Target: Rho (Escherichia coli, UniProt P0AG30, I382N)
Construct: full-length WT rho in pET21b (pRS96; NdeI/XhoI), C-terminal His-tag kept, expressed in E. coli BL21(DE3) (I382N in BL21SI), Ni-NTA and heparin-Sepharose; homo-hexamer; 419 residues natural length
Sequence (P0AG30 whole entry I382N): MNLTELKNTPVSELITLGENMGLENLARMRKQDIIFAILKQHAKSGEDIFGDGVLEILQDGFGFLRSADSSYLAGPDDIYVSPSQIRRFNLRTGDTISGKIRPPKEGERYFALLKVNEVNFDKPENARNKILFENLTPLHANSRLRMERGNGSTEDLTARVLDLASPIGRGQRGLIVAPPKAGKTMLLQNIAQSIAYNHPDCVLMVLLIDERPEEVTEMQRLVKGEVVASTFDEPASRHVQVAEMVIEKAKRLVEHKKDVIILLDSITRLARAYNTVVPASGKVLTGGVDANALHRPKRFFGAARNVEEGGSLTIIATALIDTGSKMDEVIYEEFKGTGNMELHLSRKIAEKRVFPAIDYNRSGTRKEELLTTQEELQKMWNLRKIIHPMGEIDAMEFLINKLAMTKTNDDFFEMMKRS
Experiment: UV cross-linking of [γ-32P]ATP, SDS-PAGE, hyperbolic fit
Details: read-out: Kd, app

# molecule, system-under-test, Kd
measured = [
    ("Nc1ncnc2c1ncn2[C@@H]1O[C@H](COP(=O)(O)OP(=O)(O)OP(=O)(O)O)[C@@H](O)[C@H]1O [ATP]", "Rho (Escherichia coli, UniProt P0AG30, I382N)", "600 nM"),
]
